Hey, just so you know, these numbers are from patent US9556183B2.

tested on: Digitaria ciliaris; assay: Farming soil treatment test; type: in vivo; details: 10g a.i./10a; soil surface spray prior to weed growth; 30 days
quantity name: herbicidal efficacy (growth inhibition rate level) Digitaria ciliaris

smiles string: N#Cc1cnn(-c2nn3c(c2Br)CCCC3)c1NCC1CC1
value reported: 10 (10: 100%)
//
smiles string: N#Cc1cnn(-c2nn3c(c2Cl)CCCC3)c1NC(C1CC1)C1CC1
value reported: 10 (10: 100%)
//
smiles string: N#Cc1cnn(-c2nn3c(c2Cl)CCCC3)c1N(CC1CC1)C(=O)C(F)(F)F
value reported: 10 (10: 100%)

====

Measured herbicidal efficacy (growth inhibition rate level) Digitaria ciliaris, listed per entry for reference.
tested on: Digitaria ciliaris; assay: Farming soil treatment test; type: in vivo; conditions: 10g a.i./10a; soil surface spray prior to weed growth; 30 days
quantity name: herbicidal efficacy (growth inhibition rate level) Digitaria ciliaris

compound: N#Cc1cnn(-c2nn3c(c2Cl)CCCC3)c1N(CC1CC1(F)F)C(=O)C(F)(F)F (centres unmarked) [Compound 186]
value reported: 10 (10: 100%)
--
compound: N#Cc1cnn(-c2nn3c(c2Cl)CCCC3)c1NCC1CC1(F)F (centres unmarked) [Compound 185]
value reported: 10 (10: 100%)
--
compound: N#Cc1cnn(-c2nn3c(c2Cl)CCCC3)c1NCC1CO1 (centres unmarked) [Control agent 4.129, reference compound]
value reported: 5 (5: 50% to less than 60%)
--
compound: CC(Nc1c(C#N)cnn1-c1nn2c(c1Cl)CCCC2)C1CC1 (centres unmarked) [Compound 9]
value reported: 10 (10: 100%)
--
compound: N#Cc1cnn(-c2nn3c(c2Br)CCCC3)c1N(CC1CC1)C(=O)C(F)(F)F [Compound 148]
value reported: 10 (10: 100%)
--
compound: CC1CC1CNc1c(C#N)cnn1-c1nn2c(c1Cl)CCCC2 (centres unmarked) [Compound 12]
value reported: 10 (10: 100%)
--
compound: N#Cc1cnn(-c2nn3c(c2Cl)CCCC3)c1NCC1CC1 [Compound 1]
value reported: 10 (10: 100%)
--
compound: N#Cc1cnn(-c2nn3c(c2Cl)CCCC3)c1NC1CC1 [Control agent 4.84, reference compound]
value reported: 5 (5: 50% to less than 60%)
